Below, each entry is listed alongside its reported GI50.
System: HOP-92
assay_text: NCI tumour cell line growth inhibition, 48 h
Activity calls are given as the source filed them. Cut-off read from the data, not from the text of the source: active = GI50 up to about 1.1 µM and inactive = higher.

Worked cases, GI50 given:
CC(N)Cc1ccc(Cl)c(Cl)c1 (stereo not given) = 22.6 µM (inactive)
COC(=O)/C=C1\C(=O)Nc2ccc(Br)cc21 = 1.88 µM (inactive)
O=S(=O)(c1ccc(/N=C2\NC(c3ccc(O)cc3)(c3ccccc3O)c3ccccc32)cc1)c1ccc(/N=C2/NC(c3ccc(O)cc3)(c3ccccc3O)c3ccccc32)cc1 (stereo not given) = 3.91 µM (inactive)
CCC(CCCC[C@@H]1CC[C@H]2CC(=O)C[C@@H]12)OC (stereo not given in full) = > 100 µM (inactive)

### Prompt Return GI50 for the following compound: `CSc1nc2ccccc2c(=O)n1/N=C1\C(=O)N(CN2CCCCC2)c2ccc(Cl)cc21`
### Response 32.9 µM (inactive)

----------
System: HCT-116
assay_text: NCI tumour cell line growth inhibition, 48 h
Activity calls are given as the source filed them. Rule as the data show it: active = GI50 up to about 1.1 µM and inactive = higher.
// allowed return values: active, inactive

CC12c3c4ccc(C=O)c3Oc3ccc(C=O)c(c31)Oc1ccc(C=O)c(c12)O4 = inactive
CC(C)N1[C@@H]2CCCC[C@H]2N(C(C)C)[PH]1=O = inactive
C[C@@H]1C(=O)O[C@@H]2C[C@@]1(C)[C@@H]1C(=O)C3(O)OC14C2(C)OC(=O)[C@@]4(O)CCC1C3C(O)C=C2CC=CC(=O)[C@@]21C (stereo partly drawn) = inactive
COc1c(NC(C)=O)c2ccccc2c2ccccc12 = inactive
COc1ccc(/C=C2\CN(C)C/C(=C\c3ccc(OC)c(OC)c3OC)C2=O)c(OC)c1OC = active

### Prompt Assay result, entry `Cc1ccc(-c2c(-c3ccccc3)[nH]c(C)c2C(=O)ONC(=O)c2ccccc2)cc1` — outcome?
### Response inactive

### Prompt Assay result, entry C[N+](C)(C)CC1CCC(C[N+](C)(C)C)C1=NO (stereo not drawn) — outcome?
### Response inactive

### Prompt Assay result, entry `S=C(NCc1ccccc1)N/N=C/c1ccccn1` — outcome?
### Response active

----------
Test system: SK-MEL-28
assay_text: NCI tumour cell line growth inhibition, 48 h
Activity calls are given as the source filed them. No stated cut-off is given here; in the data, active = GI50 up to about 1.1 µM and inactive = higher.
// allowed return values: y for active, n for inactive

# example entries with known answers
COC12CCCN1c1ccn(Cc3ccccc3)c(=O)c1C2=O (configuration not stated) = n
O=C(NCCCCCCCCCCCCNC(=O)c1cnc2ccccc2n1)c1cnc2ccccc2n1 = n
O=S(=O)(c1ccc(Cl)cc1)c1ccccc1C1=NCCN1 = n
CC(=O)Nc1ccc(/C=C2\N=C(c3ccccc3)OC2=O)cc1 = n

### Prompt Assay result, entry `CSc1nc2ccccc2c(=O)n1/N=C1\C(=O)N(CN2CCCCC2)c2ccc(Cl)cc21` — outcome?
### Response n

### Prompt Assay result, entry `Oc1ccccc1-c1nnc(S)n1/N=C/c1ccc(-c2ccc(Br)cc2)o1` — outcome?
### Response n

### Prompt Assay result, entry CSC1(CC(=O)N2CCCCC2)C(=O)Nc2ccccc21 (configuration not stated) — outcome?
### Response n

### Prompt Assay result, entry `c1ccc(COc2cccc3ccc[n+](Cc4ccccc4)c23)cc1` — outcome?
### Response n

### Prompt Assay result, entry `Nc1cccc2cc(S(=O)(=O)Nc3ccc(C(=O)O)cc3)ccc12` — outcome?
### Response n

----------
Test system: SK-MEL-28
assay_text: NCI tumour cell line growth inhibition, 48 h
Calls of active or inactive are those of the source. No stated cut-off is given here; in the data, active = GI50 up to about 1.1 µM and inactive = higher. Starred links: 1 amine or outer side, 2 acyl side, 3 side chain; linkers in the order of their positions; H or OH if unused. Non-standard residues stand in square brackets, D forms with d. Residues, ends and D or L forms follow the SMILES beside them. X41 = CSCCCC(N[*:1])C(=O)[*:2]
Below, each entry is listed alongside its reported GI50.

Worked cases, GI50 given:
COc1ccc(C[C@H]2COC(=O)[C@@H]2Cc2cccc(Br)c2)cc1OC = 30.5 µM (inactive)
C[Si](C)(c1ccc(C(=O)O)cc1)c1ccc(C(=O)O)cc1 = > 100 µM (inactive)
CSCCCC(NC(=O)CNC(=O)C1CCCN1C(=O)C(Cc1ccc(O)cc1)NC(=O)C(Cc1ccccc1)NC(=O)C(CCCNC(=N)N)NC(=O)C(CC(=O)O)NC(=O)C1CCCN1C(=O)C(CC(=O)O)NC(=O)C1CCCN1C(=O)C1CCCN1C(=O)CN)C(N)=O (stereo not given) (H-GPPDPDRFYPG[X41]-NH2; configuration not given here) = > 50 µM (inactive)
O=C(c1ccco1)N(C(=S)N1CCN(c2ccccn2)CC1)C1CCCCC1 = > 100 µM (inactive)

### Prompt Return GI50 for the following compound: `CC1=C(C(=O)N(C)c2ccc(Cl)c(C(=O)OC(C)C)c2)SCCO1`
### Response > 100 µM (inactive)

----------
Below, each entry is listed alongside its reported GI50.
Test system: EKVX
assay_text: NCI tumour cell line growth inhibition, 48 h
The source made the active and inactive calls. Cut-off read from the data, not from the text of the source: active = GI50 up to about 1.1 µM and inactive = higher.

Worked cases, GI50 given:
CCOC(=O)n1cncc1CC(NC(=O)Cc1c(C(=O)C=C(C)C)[nH]c2ccccc12)C(=O)OC (stereo not drawn) = 15.5 µM (inactive)
CCOC(=O)N(NC(=O)NC(C)C)c1ccccc1 = > 100 µM (inactive)
CSC1(CC(=O)N2CCCCC2)C(=O)Nc2ccccc21 (stereo not drawn) = > 100 µM (inactive)
Cc1ccc(C(=O)Nc2ccc(CP(=O)(O)O)cc2CP(=O)(O)O)cc1NC(=O)c1cccc(NC(=O)Nc2cccc(C(=O)Nc3cc(C(=O)Nc4ccc(CP(=O)(O)O)cc4CP(=O)(O)O)ccc3C)c2)c1 = > 100 µM (inactive)
N#CC1C[C@@H]2CC3(CCC2CN1C(=O)c1ccccc1)OCCO3 (stereo partly drawn) = > 100 µM (inactive)

### Prompt Return GI50 for the following molecule: `O=C(Cc1cc(=O)oc2cc(O)ccc12)N/N=C/c1ccc(N(CCCl)CCCl)cc1`
### Response 17.5 µM (inactive)

### Prompt Return GI50 for the following molecule: CCn1c(-c2ccc(OC(C)=O)cc2)c(C)c2cc(OC(C)=O)ccc21 [ZINDOXIFENE]
### Response 17.9 µM (inactive)

### Prompt Return GI50 for the following molecule: CC(C)[C@@H]1CC[C@@H](C)C[C@H]1OC(=O)/C=C1\C(C(=O)O[C@@H]2C[C@H](C)CC[C@H]2C(C)C)[C@H]2C=C[C@@H]1O2 (stereo partly drawn)
### Response 63.4 µM (inactive)

----------
Below, each entry is listed alongside its reported GI50.
System: SW-620
assay_text: NCI tumour cell line growth inhibition, 48 h
Calls of active or inactive are those of the source. Rule as the data show it: active = GI50 up to about 1.1 µM and inactive = higher.

CC(=O)Nc1ccc(/C=C2\N=C(c3ccccc3)OC2=O)cc1 = > 100 µM (inactive)

### Prompt Return GI50 for the following compound: CC(C)(C)C(=O)N1C(C(=O)O)Cc2ccccc2[C@@H]1Cc1ccccc1 (stereo partly specified)
### Response > 100 µM (inactive)

### Prompt Return GI50 for the following compound: `COc1cc2cc3c4c(cc(OC)c(OC)c4c2cc1OC)CCN3C(=O)CCC(=O)NCCCN(C)C`
### Response 54 µM (inactive)

### Prompt Return GI50 for the following compound: `CN(Cc1ccccc1)c1nc(=[N+](C)C)ss1`
### Response > 100 µM (inactive)

### Prompt Return GI50 for the following compound: CC1CSC(=S)N1C(=O)N1C(=S)SCC1C (stereo unspecified)
### Response 20.4 µM (inactive)

### Prompt Return GI50 for the following compound: CCOC(=O)N1CCC2(CC1)C[C@](C)(C(C)=O)C(C)O2 (stereo partly specified)
### Response > 100 µM (inactive)

----------
Test system: MDA-MB-435
assay_text: NCI tumour cell line growth inhibition, 48 h
Activity calls are given as the source filed them. Rule as the data show it: active = GI50 up to about 1.1 µM and inactive = higher.
Below, each entry is listed alongside its reported GI50.

NNC(=O)CS(=O)(=O)Nc1ncccn1 = > 100 µM (inactive)
CC(C)(C)Cc1cc(O)ccc1O = 39.1 µM (inactive)
O=[N+]([O-])C(/C=C(\Cl)[N+](=O)[O-])=C(N1CCCCC1)N1CCCCC1 = 16.7 µM (inactive)
COc1cc(/C=C/C=C2\CCC/C(=C\C=C\c3ccc(O)c(OC)c3)C2=O)ccc1O = 9.57 µM (inactive)

### Prompt Return GI50 for the following molecule: `CN(N=O)c1nc2c(C(N)=O)ncn2s1`
### Response 53.2 µM (inactive)

----------
Tested on: OVCAR-3
assay_text: NCI tumour cell line growth inhibition, 48 h
The source made the active and inactive calls. No stated cut-off is given here; in the data, active = GI50 up to about 1.1 µM and inactive = higher.
// allowed return values: 1 (yes) = active, 0 (no) = inactive

# example entries with known answers
CC(=O)c1ccc(NC(=O)/C(CC(=O)/C=C/c2ccccc2)=N/NC(N)=S)cc1 = 0 (no)
Cc1cc(NS(=O)(=O)c2ccc(Nc3c4ccccc4nc4c(C(=O)NCCN(C)C)ccc(Cl)c34)cc2)no1 = 0 (no)
CC(N)Cc1ccc(Cl)c(Cl)c1 (stereo not given) = 0 (no)
Cc1cc(C)nc(NC(=O)c2ccc(Br)s2)c1 = 0 (no)
COC(=O)[C@H](C)N1C(=O)N[C@@H](C(C)C)C1=O = 0 (no)

### Prompt Assay result, entry `c1ccc(CN2CCC(=NN3CCCCC3)CC2)cc1` — outcome?
### Response 0 (no)

### Prompt Assay result, entry COc1ccc(C2CC(c3c(C)nn(-c4ccccc4)c3-c3ccc(C)cc3O)=NN2c2ccccc2)cc1 (stereo not given) — outcome?
### Response 0 (no)

### Prompt Assay result, entry `COC(=O)[C@@H]1CN(C(=O)c2ccccc2)C(=O)N1C(=O)OCc1ccccc1` — outcome?
### Response 0 (no)

### Prompt Assay result, entry `c1ccc2c(c1)Nc1ccccc1[P+]21c2ccccc2Nc2ccccc21` — outcome?
### Response 1 (yes)

### Prompt Assay result, entry CCCCCCCCCCCCCCCCCCOCC(C[N+]1(C)CCC(O)CC1)OCC (stereo not given) — outcome?
### Response 0 (no)
